Entries annotated with measured IC50
Target: Recombinant human PKC-theta (His-tagged 362-706) (Homo sapiens, UniProt Q04759)
Construct: Recombinant human PKC-theta (His-tagged 362-706); His
Sequence (Q04759 362-706): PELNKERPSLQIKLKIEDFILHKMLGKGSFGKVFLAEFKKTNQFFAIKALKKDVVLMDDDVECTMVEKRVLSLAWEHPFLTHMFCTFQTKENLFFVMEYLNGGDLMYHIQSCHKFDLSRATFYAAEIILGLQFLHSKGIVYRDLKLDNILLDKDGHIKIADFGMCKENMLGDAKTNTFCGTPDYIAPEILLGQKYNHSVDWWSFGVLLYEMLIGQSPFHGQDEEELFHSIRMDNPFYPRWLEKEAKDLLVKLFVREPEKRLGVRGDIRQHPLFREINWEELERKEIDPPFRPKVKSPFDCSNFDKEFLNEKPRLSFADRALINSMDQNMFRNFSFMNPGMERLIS
Test: PKC-theta inhibition assay (HTRF KinEASE kit)
Type: biochemical
Settings: ATP 6.5 μM; STK substrate 525 nM; read-out: PKC-theta HTRF pIC50 (converted)
Experimental: PKC-theta and PKC-delta biochemical activities were measured using the PKC-theta HTRF KinEASEkit kit, according to manufacturer's instructions (Cisbio, catalogue number 61ST1PEJ). […] The ratio of acceptor and donor emission signals was calculated for each well. Percent inhibition values were calculated from the HTRF ratios at different doses and fitted to a 4-parameter logistic curve to determine IC50 values (see Table 2).
Just the number in nM, nothing appended.

Incoming: I have this compound here, CC1(C)C(=O)Nc2nccc(-c3cccc(N4CCNCC4)c3Cl)c21 , and I need its recorded IC50.
Outgoing: 1580

Incoming: What would you report for CC[C@]1(C)C(=O)Nc2nccc(-c3cc(C(F)(F)F)cc(N4CCNC[C@H]4C)n3)c21 (single isomer, unassigned) ?
Outgoing: 1

Incoming: What would you report for CC1C(=O)Nc2nccc(-c3cccc(CN(C)C)c3)c21 (centres unmarked) ?
Outgoing: 501

Incoming: What would you report for C[C@@H]1CN(c2cc(Cl)cc(-c3ccnc4c3C(C)(O)C(=O)N4)c2)CCN1 (some centres unmarked) ?
Outgoing: 50.1

Incoming: What would you report for C[C@@H]1CN[C@@H](C)CN1c1cc(C(F)(F)F)cc(-c2ccnc3c2C(C)(C)C(=O)N3)n1 ?
Outgoing: 6.31

----------
Entries annotated with measured PKC-theta/PKC-delta selectivity
molecular target: Recombinant human PKC-delta (His-tagged 345-676) (Homo sapiens, UniProt Q05655); construct: PKC-delta (His-tagged 345-676); His; assay: PKC-delta inhibition assay (HTRF KinEASE kit); assay type: biochemical; settings: ratio, PKC-theta vs PKC-delta HTRF
Sequence (Q05655 345-676): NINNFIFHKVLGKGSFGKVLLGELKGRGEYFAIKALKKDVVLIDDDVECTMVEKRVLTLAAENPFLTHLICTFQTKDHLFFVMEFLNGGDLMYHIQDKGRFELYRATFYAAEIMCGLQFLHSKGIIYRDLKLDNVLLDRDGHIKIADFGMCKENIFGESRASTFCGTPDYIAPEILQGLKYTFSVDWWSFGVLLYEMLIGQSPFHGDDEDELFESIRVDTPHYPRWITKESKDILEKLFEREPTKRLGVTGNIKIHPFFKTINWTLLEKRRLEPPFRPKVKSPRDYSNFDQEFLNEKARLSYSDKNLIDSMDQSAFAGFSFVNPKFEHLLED

// below: answered compounds
C[C@H]1CN(c2cc(-c3ccnc4c3[C@@](C)(O)C(=O)N4)cc(C(F)(F)F)c2)CCN1 (single isomer, unassigned) [Example 82]	3
COC1(C)C(=O)Nc2nccc(-c3cc(C(F)(F)F)cc(N4CCN[C@@H](C)C4)n3)c21 (stereo partly drawn)	20

Incoming: Query the reported PKC-theta/PKC-delta selectivity for Recombinant human PKC-delta (His-tagged 345-676) (Homo sapiens, UniProt Q05655); item: CC1C(=O)Nc2nccc(-c3cc(F)cc(N4CCNCC4)c3)c21 (stereo not drawn)
Outgoing: 3

Incoming: What would you report for CC[C@@]1(C)C(=O)Nc2nccc(-c3cc(C(C)(F)F)cc(N4CCN[C@@H](C)C4)n3)c21 (single isomer, unassigned) ?
Outgoing: 27

----------
Entries annotated with measured PKC-theta/PKC-delta selectivity
molecular target: Recombinant human PKC-delta (His-tagged 345-676) (Homo sapiens, UniProt Q05655); construct: PKC-delta (His-tagged 345-676); His; assay: PKC-delta inhibition assay (HTRF KinEASE kit); format: biochemical; conditions: ratio, PKC-theta vs PKC-delta HTRF
Please respond with just the number, no unit label.

// below: answered molecules
C[C@H]1CN(c2cc(Cl)cc(-c3ccnc4c3C(C)(O)C(=O)N4)c2)CCN1 (stereo partly shown)	11
CC1(C)C(=O)Nc2nccc(-c3cccc(S(=O)(=O)N4CCNCC4)c3)c21	1
C[C@@H]1CN(c2cc(C(F)(F)F)cc(-c3ccnc4c3[C@](C)(O)C(=O)N4)n2)[C@H](C)CN1 (single isomer, unassigned)	12

// next item, PKC-theta/PKC-delta selectivity requested
Incoming: I have this molecule here, C[C@@H]1CNCCN1c1cc(Cl)cc(-c2c(F)cnc3c2C(C)(C)C(=O)N3)n1 , and I need its recorded PKC-theta/PKC-delta selectivity.
Outgoing: 17

----------
target: Recombinant human PKC-theta (His-tagged 362-706) (Homo sapiens, UniProt Q04759); construct: Recombinant human PKC-theta (His-tagged 362-706); His; assay: PKC-theta inhibition assay (HTRF KinEASE kit); type: biochemical; details: ATP 6.5 μM; STK substrate 525 nM; read-out: PKC-theta HTRF pIC50 (converted)
readout.kind: IC50 (nM)
Just the number in nM, nothing appended.

CC[C@@]1(C)C(=O)Nc2nccc(-c3cc(C(F)(F)F)cc(N4CCNC[C@H]4C)n3)c21 (single isomer, unassigned)	3.98
C[C@@]1(O)C(=O)Nc2nccc(-c3cc(C(F)(F)F)cc(N4CCNC5CC54)n3)c21 (single isomer, unassigned)	5.01
CN1CCN(c2cc(C(F)(F)F)cc(-c3ccnc4c3C(C)(C)C(=O)N4)n2)CC1	31.6

Incoming: I have this compound here, CC1(C)C(=O)Nc2nccc(-c3cc(C(F)(F)F)cc(N4CCNC(C(C)(C)O)C4)n3)c21 (stereo not shown) , and I need its recorded IC50.
Outgoing: 3.98

----------
Entries annotated with measured PKC-theta/PKC-delta selectivity
target: Recombinant human PKC-delta (His-tagged 345-676) (Homo sapiens, UniProt Q05655); construct: PKC-delta (His-tagged 345-676); His; test: PKC-delta inhibition assay (HTRF KinEASE kit); type: biochemical; details: ratio, PKC-theta vs PKC-delta HTRF
Please respond with just the number, no unit label.

// below: answered compounds
C[C@H]1CN(c2cc(Cl)cc(-c3ccnc4c3C(C)(O)C(=O)N4)n2)CCN1 (some centres unmarked) [Example 74]	12
CC(c1cccc(-c2ccnc3[nH]c(=O)[nH]c23)c1)N(C)C (centres unmarked)	1
CN(C)Cc1cccc(-c2ccnc3[nH]c(=O)[nH]c23)c1	1
CC1(C)C(=O)Nc2nccc(-c3cccc(C4CCNCC4)c3)c21	2
CC[C@H]1CN(c2cccc(-c3ccnc4c3C(C)(C)C(=O)N4)c2)CCN1	3
C[C@@H]1CNC[C@H](C)N1c1cc(C(F)(F)F)cc(-c2ccnc3c2C(C)(C)C(=O)N3)n1	20
CC[C@]1(O)C(=O)Nc2nccc(-c3cc(C(F)(F)F)cc(N4CCNC[C@H]4C)n3)c21 (single isomer, unassigned)	33

Incoming: I have this compound here, CN1CCN(c2cccc(-c3ccnc4[nH]c(=O)[nH]c34)c2)CC1 , and I need its recorded PKC-theta/PKC-delta selectivity.
Outgoing: 2

----------
target: Recombinant human PKC-theta (His-tagged 362-706) (Homo sapiens, UniProt Q04759); construct: Recombinant human PKC-theta (His-tagged 362-706); His; experiment: PKC-theta inhibition assay (HTRF KinEASE kit); type: biochemical; conditions: PKC-theta HTRF pIC50 (binned), ATP 6.5 μM; STK substrate 525 nM; binned A to H
Where a name gives a salt, the structure may show the parent alone.
Entries annotated with measured IC50

C[C@H]1CNCCN1c1cccc(-c2ccnc3[nH]c(=O)[nH]c23)c1 [Example 8, dihydrochloride]	0.316 to 1 µM

Incoming: I have this compound here, CC1(C)C(=O)Nc2nccc(-c3cc(F)cc(CN4CCNCC4)c3)c21 [Example 32, dihydrochloride] , and I need its recorded IC50.
Outgoing: 0.1 to 0.316 µM

----------
target: Recombinant human PKC-theta (His-tagged 362-706) (Homo sapiens); construct: Recombinant human PKC-theta (His-tagged 362-706); His; experiment: PKC-theta inhibition assay (HTRF KinEASE kit); type: biochemical; conditions: ATP 6.5 μM; STK substrate 525 nM; read-out: PKC-theta HTRF pIC50 (converted)
Entries annotated with measured IC50
Just the number in nM, nothing appended.

// below: answered compounds
C[C@@]1(O)C(=O)Nc2nccc(-c3cc(C(F)(F)F)cc(N4CC5CCC4CN5)n3)c21 (single isomer, unassigned)	15.8
CC1(O)C(=O)Nc2nccc(-c3cc(Cl)cc(N4CCNCC4)c3)c21 (stereo not shown)	10
C[C@H]1CNCCN1c1cccc(-c2ccnc3c2C(C)(C)C(=O)N3)c1	200

// next item, IC50 requested
Incoming: I have this compound here, CC[C@H]1CN(c2cc(C(F)(F)F)cc(-c3ccnc4c3C(C)(O)C(=O)N4)n2)CCN1 (stereo partly shown) , and I need its recorded IC50.
Outgoing: 1.26

----------
Entries annotated with measured IC50
biological target: Recombinant human PKC-theta (His-tagged 362-706) (Homo sapiens); construct: Recombinant human PKC-theta (His-tagged 362-706); His; assay: PKC-theta inhibition assay (HTRF KinEASE kit); assay type: biochemical; details: ATP 6.5 μM; STK substrate 525 nM; read-out: PKC-theta HTRF pIC50 (converted)
Just the number in nM, nothing appended.

C[C@@H]1CNCCCN1c1cc(C(F)(F)F)cc(-c2ccnc3c2C(C)(C)C(=O)N3)n1	3.16
CO[C@]1(C)C(=O)Nc2nccc(-c3cc(C(C)(F)F)cc(N4CCNC[C@H]4C)n3)c21 (single isomer, unassigned)	10
C[C@@H]1CN(c2cc(C(F)(F)F)cc(-c3ccnc4c3[C@](C)(O)C(=O)N4)n2)CCN1 (single isomer, unassigned)	12.6

Incoming: I have this compound here, C[C@@H]1CN(c2cc(C(F)(F)F)cc(-c3ccnc4c3[C@](C)(O)C(=O)N4)n2)[C@@H](C)CN1 (single isomer, unassigned) , and I need its recorded IC50.
Outgoing: 25.1

Incoming: What would you report for C[C@H]1CN(c2cc(C(F)(F)F)cc(-c3ccnc4c3C(C)(C)C(=O)N4)n2)CCN1 ?
Outgoing: 3.98

Incoming: What would you report for CC1(C)C(=O)Nc2nccc(-c3cc(C#N)cc(N4CCNCC4)c3)c21 ?
Outgoing: 251

Incoming: What would you report for C[C@@H]1CCN(c2cc(C(F)(F)F)cc(-c3ccnc4c3C(C)(C)C(=O)N4)n2)CCN1 ?
Outgoing: 10

Incoming: What would you report for CC1(C)C(=O)Nc2nccc(-c3cccc(N4CCNC(Cc5cccnc5)C4)c3)c21 (stereo not drawn) ?
Outgoing: 50.1

Incoming: What would you report for C[C@@]1(O)C(=O)Nc2nccc(-c3cc(C(F)(F)F)cc(N4CC5CC(C4)N5)n3)c21 (single isomer, unassigned) ?
Outgoing: 25.1
